These entries and their values trace back to patent US8658604B2.

# study_system: Trypsin, from human pancreas (Homo sapiens, UniProt P07477)
# protocol: Enzymatic assay, trypsin
# details: at 100 μM
Where a SMILES comes first, the peptide text is derived from it.
experimental_readout: Trypsin at 100 μM % (%)
Note: unit % is implicit; provide only the numeric part.

# example entries with known answers
CCCC[C@@H]1NC(=O)[C@H](C(C)C)NC(=O)[C@H]2CCCN2C(=O)[C@H](Cc2ccc(O)cc2)NC(=O)[C@@H]2CSSC[C@H](NC1=O)C(=O)N[C@@H]([C@@H](C)O)C(=O)N[C@@H](C)C(=O)N[C@@H](CO)C(=O)N[C@@H]([C@@H](C)CC)C(=O)N1CCC[C@H]1C(=O)N1CCC[C@H]1C(=O)N[C@@H](CCC(N)=O)C(=O)N2 [Ex. 125] (HELM PEPTIDE1{[Nle].C.T.A.S.I.P.P.Q.C.Y.[dP].V}$PEPTIDE1,PEPTIDE1,2:R3-10:R3|PEPTIDE1,PEPTIDE1,1:R1-13:R2$$$V2.0) ... 28.3
CCCC[C@@H]1NC(=O)[C@H](CCC(=O)O)NC(=O)[C@@H](CCCCN)NC(=O)[C@H](Cc2ccc(O)cc2)NC(=O)[C@@H]2CSSC[C@H](NC1=O)C(=O)N[C@@H]([C@@H](C)O)C(=O)N[C@@H](C)C(=O)N[C@@H](CO)C(=O)N[C@@H]([C@@H](C)CC)C(=O)N1CCC[C@H]1C(=O)N1CCC[C@H]1C(=O)N[C@@H](CCC(N)=O)C(=O)N2 [Ex. 127] (HELM PEPTIDE1{[Nle].C.T.A.S.I.P.P.Q.C.Y.[dK].E}$PEPTIDE1,PEPTIDE1,2:R3-10:R3|PEPTIDE1,PEPTIDE1,1:R1-13:R2$$$V2.0) ... 0
CCCC[C@@H]1NC(=O)[C@@H]2CCCN2C(=O)[C@H]2CCCN2C(=O)[C@H](Cc2ccc(O)cc2)NC(=O)[C@@H]2CSSC[C@H](NC1=O)C(=O)N[C@@H]([C@@H](C)O)C(=O)N[C@@H](C)C(=O)N[C@@H](CO)C(=O)N[C@@H]([C@@H](C)CC)C(=O)N1CCC[C@H]1C(=O)N1CC(NC(=O)c3ccccc3)C[C@H]1C(=O)N[C@@H](CCC(N)=O)C(=O)N2 (single isomer, unassigned) [Ex. 88] ... 6.4
CC[C@H](C)[C@@H]1NC(=O)[C@@H]2CCCN2C(=O)[C@@H]2CCCN2C(=O)[C@H](CC(=O)O)NC(=O)[C@H](CO)NC(=O)[C@H](CCCCN)NC(=O)[C@H]([C@@H](C)O)NC(=O)[C@@H]2CSSC[C@H](NC1=O)C(=O)N[C@@H](Cc1ccc(O)cc1)C(=O)N1CCC[C@@H]1C(=O)N1CCC[C@H]1C(=O)N[C@@H](Cc1ccccc1)C(=O)N2 [Ex. 5] (HELM PEPTIDE1{F.C.T.K.S.D.P.P.I.C.Y.[dP].P}$PEPTIDE1,PEPTIDE1,2:R3-10:R3|PEPTIDE1,PEPTIDE1,1:R1-13:R2$$$V2.0) ... 92
C[C@@H](O)[C@@H]1NC(=O)[C@@H]2CSSC[C@H](NC(=O)[C@H](CC3CCCCC3)NC(=O)[C@@H]3CCCN3C(=O)[C@@H]3CCCN3C(=O)[C@H](CC(=O)O)NC(=O)[C@H](CO)NC(=O)[C@H](CCCCN)NC1=O)C(=O)N[C@@H](CO)C(=O)N1CCC[C@@H]1C(=O)N1CCC[C@H]1C(=O)N[C@@H](Cc1ccccc1)C(=O)N2 [compound 54] (HELM PEPTIDE1{F.C.T.K.S.D.P.P.[Cha].C.S.[dP].P}$PEPTIDE1,PEPTIDE1,2:R3-10:R3|PEPTIDE1,PEPTIDE1,1:R1-13:R2$$$V2.0) ... 90

Query :: Query (molecule): CC[C@H](C)[C@@H]1NC(=O)[C@@H]2CCCN2C(=O)[C@@H]2CCCN2C(=O)[C@H](CC(=O)O)NC(=O)[C@H](CO)NC(=O)[C@H](CCCCN)NC(=O)[C@H]([C@@H](C)O)NC(=O)[C@@H]2CSSC[C@H](NC1=O)C(=O)N[C@@H](CO)C(=O)N1CCC[C@@H]1C(=O)N[C@@H](CC(C)C)C(=O)N[C@@H](Cc1ccccc1)C(=O)N2 [Ex. 74] (HELM PEPTIDE1{C.S.[dP].L.F.C.T.K.S.D.P.P.I}$PEPTIDE1,PEPTIDE1,1:R3-6:R3|PEPTIDE1,PEPTIDE1,1:R1-13:R2$$$V2.0) ; field requested: Trypsin at 100 μM %
Result :: 86

Query :: Same again, this time with CC[C@H](C)[C@@H]1NC(=O)[C@@H]2CCCN2C(=O)[C@@H]2CCCN2C(=O)[C@H](CC(=O)O)NC(=O)[C@H](CO)NC(=O)[C@H](CCCCN)NC(=O)[C@H]([C@@H](C)O)NC(=O)[C@@H]2CSSC[C@H](NC1=O)C(=O)N[C@@H](CO)C(=O)N1CCC[C@@H]1C(=O)N1CCC[C@H]1C(=O)N[C@@H](C1CCCCC1)C(=O)N2 [Ex. 11] (HELM PEPTIDE1{[O=C([C@@H](N[*:1])C1CCCCC1)[*:2]].C.T.K.S.D.P.P.I.C.S.[dP].P}$PEPTIDE1,PEPTIDE1,2:R3-10:R3|PEPTIDE1,PEPTIDE1,1:R1-13:R2$$$V2.0)
Result :: 6.5

Query :: Same again, this time with CCCC[C@@H]1NC(=O)[C@@H]2CCCN2C(=O)[C@H]2CCCN2C(=O)[C@H](Cc2ccccc2Cl)NC(=O)[C@@H]2CSSC[C@H](NC1=O)C(=O)N[C@@H]([C@@H](C)O)C(=O)N[C@@H](C)C(=O)N[C@@H](CO)C(=O)N[C@@H]([C@@H](C)CC)C(=O)N1CCC[C@H]1C(=O)N1CCC[C@H]1C(=O)N[C@@H](CCC(N)=O)C(=O)N2 [Ex. 144] (HELM PEPTIDE1{[Nle].C.T.A.S.I.P.P.Q.C.[O=C([C@H](Cc1ccccc1Cl)N[*:1])[*:2]].[dP].P}$PEPTIDE1,PEPTIDE1,2:R3-10:R3|PEPTIDE1,PEPTIDE1,1:R1-13:R2$$$V2.0)
Result :: 7.5
